Test system: HTC-C3 (Thyroid Gland Carcinoma)
run-description: combination Emax (second highest fraction inhibited in the dose matrix, 72 h); higher = more inhibition; extreme values may be limits of the assay
Reported combination Emax values follow for various compounds
Please give only the number in your answer, with no unit.

Below are worked cases with known answers.
COc1nnc2ccc(N3CCC(c4ccc(OCCN5CCN(C)C(=O)[C@H]5C)cc4)CC3)nn12 [AZD5153] + CC1(C)CCC(CN2CCN(c3ccc(C(=O)NS(=O)(=O)c4ccc(NCC5CCOCC5)c([N+](=O)[O-])c4)c(Oc4cnc5[nH]ccc5c4)c3)CC2)=C(c2ccc(Cl)cc2)C1 [Venetoclax] (first compound max 1 µM, 7x7, partner max 1 µM): 0.763
CN(CCO)CC[C@H](CSc1ccccc1)Nc1ccc(S(=O)(=O)NC(=O)c2ccc(N3CCC([C@@H](O)c4ccccc4-c4ccc(Cl)cc4)CC3)cc2)cc1S(=O)(=O)C(F)(F)F [AZD4320] + C=CCn1c(=O)c2cnc(Nc3ccc(N4CCN(C)CC4)cc3)nc2n1-c1cccc(C(C)(C)O)n1 [AZD1775] (first compound max 1 µM, partner max 1 µM): 0.742
Cc1c2c(nn1C)CSCc1cc(n(C)n1)CSc1cc(c3ccccc3c1)OCCCc1c(C(=O)O)n(C)c3c-2c(Cl)ccc13 [AZD5991] + C[C@@H](Nc1cc(F)cc(F)c1)c1cc(C(=O)N(C)C)cc2c(=O)cc(N3CCOCC3)oc12 [AZD8186] (first compound max 1 µM, 7x7, partner max 3 µM): 0.277
NC1(C(=O)N[C@@H](CCO)c2ccc(Cl)cc2)CCN(c2ncnc3[nH]ccc23)CC1 [Capivasertib] + COc1nnc2ccc(N3CCC(c4ccc(OCCN5CCN(C)C(=O)[C@H]5C)cc4)CC3)nn12 [AZD5153] (first compound max 10 µM, 7x7, partner max 1 µM): 0.791
CN(CCO)CC[C@H](CSc1ccccc1)Nc1ccc(S(=O)(=O)NC(=O)c2ccc(N3CCC([C@@H](O)c4ccccc4-c4ccc(Cl)cc4)CC3)cc2)cc1S(=O)(=O)C(F)(F)F [AZD4320] + C[C@@H]1COCCN1C2=NC(=NC(=C2)C3(CC3)[S@](=N)(=O)C)C4=C5C=CNC5=NC=C4 [AZD6738] (first compound max 1 µM, 7x7, partner max 10 µM): 0.881
CC1(C)CCC(CN2CCN(c3ccc(C(=O)NS(=O)(=O)c4ccc(NCC5CCOCC5)c([N+](=O)[O-])c4)c(Oc4cnc5[nH]ccc5c4)c3)CC2)=C(c2ccc(Cl)cc2)C1 [Venetoclax] + CN(C)CCCOc1ccc(-c2ccc3ncc4c(c3c2)n(C2CCOCC2)c(=O)n4C)cn1 [AZD0156] (first compound max 1 µM, 7x7, partner max 1 µM): 0.205
Cc1nc(Nc2ncc(C(=O)Nc3c(C)cccc3Cl)s2)cc(N2CCN(CCO)CC2)n1 [Dasatinib] + CC(=O)Nc1cccc(-n2c(=O)n(C3CC3)c(=O)c3c(Nc4ccc(I)cc4F)n(C)c(=O)c(C)c32)c1 [Trametinib] (first compound max 2 µM, 7x7, partner max 1 µM): 0.906
CN(C)CCCOc1ccc(-c2ccc3ncc4c(c3c2)n(C2CCOCC2)c(=O)n4C)cn1 [AZD0156] + C[C@@H]1COCCN1C2=NC(=NC(=C2)C3(CC3)[S@](=N)(=O)C)C4=C5C=CNC5=NC=C4 [AZD6738] (first compound max 1 µM, 7x7, partner max 10 µM): 0.823
COc1cc2ncnc(Nc3ccc(F)c(Cl)c3)c2cc1OCCCN1CCOCC1 [Gefitinib] + CC(C)n1c(=O)n(C)c2cnc3cc(F)c(-c4ccc(OCCCN5CCCCC5)nc4)cc3c21 [AZD1390] (first compound max 10 µM, 7x7, partner max 0.3 µM): 0.0317
CN(CCO)CC[C@H](CSc1ccccc1)Nc1ccc(S(=O)(=O)NC(=O)c2ccc(N3CCC([C@@H](O)c4ccccc4-c4ccc(Cl)cc4)CC3)cc2)cc1S(=O)(=O)C(F)(F)F [AZD4320] + Cc1cc2ncnn2cc1Nc1ncc2c(n1)n(C1CCOCC1)c(=O)n2C [AZD7648] (first compound max 1 µM, 7x7, partner max 10 µM): 0.342

Record COc1cccc(OCCCN)c1-c1cc(Nc2cnc(C#N)cn2)n[nH]1 [Prexasertib] + O=C(c1cc(Cc2n[nH]c(=O)c3ccccc23)ccc1F)N1CCN(C(=O)C2CC2)CC1 [Olaparib] (first compound max 1 µM, 7x7, partner max 10 µM) / HTC-C3 (Thyroid Gland Carcinoma), combination Emax recorded as 0.751

The compound CC1(C)CCC(CN2CCN(c3ccc(C(=O)NS(=O)(=O)c4ccc(NCC5CCOCC5)c([N+](=O)[O-])c4)c(Oc4cnc5[nH]ccc5c4)c3)CC2)=C(c2ccc(Cl)cc2)C1 [Venetoclax] + CCN(CCO)CCCOc1ccc2c(Nc3cc(CC(=O)Nc4cccc(F)c4)[nH]n3)ncnc2c1 [AZD2811] (first compound max 1 µM, 7x7, partner max 1 µM) , when measured on HTC-C3 (Thyroid Gland Carcinoma), yielded combination Emax of 0.121
